The following compounds are listed with their measured TGI values.
system: XF 498 CNS; assay: NCI tumour cell line growth inhibition, 48 h

COMPOUND: Cc1cc2c(s1)C(=O)c1sccc1C2=O
TGI: 2.92 µM

COMPOUND: CCOC(=O)C(=O)Nc1c(N(CC)CC)n2ccccc2nc1=O
TGI: > 100 µM

COMPOUND: O=S1(=O)C[C@@H](O)[C@H](O)CS1
TGI: > 100 µM

Attention now turns to another entry.
Using the record for `O=C1C(=O)N(c2ccc(Cl)c(Cl)c2)C(=O)C(=O)C1c1nc2ccccc2o1` , report its TGI.
> 100 µM

* * *

tested on: SW-620 colon; test: NCI tumour cell line growth inhibition, 48 h; in the data active means GI50 below about 0.43 µM; inactive means the rest
// classify into y for active, n for inactive

See these solved cases before continuing.
COMPOUND: C[C@H]1CCC/C=C/[C@@H]2C[C@H](O)C[C@H]2[C@H](O)[C@@H](S(=O)CCN(C)C)CC(=O)O1 (some centres undefined)
TEST_TARGET: SW-620 colon
GROUP: y
--
COMPOUND: CC[N+](CC)(CC)CCCn1c2c(c3ccccc3c1=O)C(=O)c1ccccc1-2
TEST_TARGET: SW-620 colon
GROUP: n

# fetch the recorded call for `CCOC(=O)Oc1c(OC)cc(C(=O)O[C@@H]2C[C@@H]3CN4CCc5c([nH]c6cc(OC)ccc56)[C@H]4C[C@@H]3[C@H](C(=O)OC)[C@H]2OC)cc1OC` here
n

Query `O=C([CH-]C(=O)c1ccccc1)c1ccccc1.O=C([CH-]C(=O)c1ccccc1)c1ccccc1.[Nd+3].[OH-].[OH3+]` next
n

* * *

The following compounds are listed with their measured TGI values.
test system: RXF 393 renal; assay: NCI tumour cell line growth inhibition, 48 h

Known TGI results, listed for orientation:
CPD_SMILES: COC(=O)N/N=C/c1oc(-c2cccc([N+](=O)[O-])c2)c(-c2cccc([N+](=O)[O-])c2)c1[N+](=O)[O-]
TGI: > 100 µM

CPD_SMILES: O=C1C(=O)c2ccccc2C(O)=C1C(CCc1ccccc1)C1=C(O)c2ccccc2C(=O)C1=O
TGI: > 100 µM

CPD_SMILES: Cn1c(=O)c2[nH]c(CS(=O)(=O)Cc3nc4c([nH]3)c(=O)n(C)c(=O)n4C)nc2n(C)c1=O
TGI: > 100 µM

Attention now turns to another entry.
Using the record for `CC(=O)N1c2ccccc2Sc2cc(C(O)(C(F)(F)F)C(F)(F)F)ccc21` , report its TGI.
> 10 µM

* * *

The following compounds are listed with their measured TGI values.
system: OVCAR-4 ovarian; test: NCI tumour cell line growth inhibition, 48 h

COMPOUND: COc1cccc(-c2nc3c(C(=O)NCCN(C)C)cccc3[nH]2)c1
TGI: 84.6 µM
//
COMPOUND: COc1ccc(/C=C\c2cc(OC)c(OC)c(OC)c2)cc1OCC(=O)Nc1nc2ccc(C(F)(F)F)cc2s1
TGI: > 100 µM
//
COMPOUND: O=C(Nc1ccc(Cl)cc1)c1cc2ccccc2cc1O
TGI: > 100 µM

Using the record for `O=S1(=O)CCN(Cc2ccccc2)/C1=N\S(=O)(=O)c1ccc(Cl)cc1` , report its TGI.
36.2 µM

Query CCCCCCCCCCCCCCCCP(=O)(O)OP(=O)(O)OCC1OC(n2cnc3c(N)ncnc32)C(O)C1O (configuration not stated) next
> 100 µM

Query `CC1(C)N=C(N)N=C(N)N1c1cc(Cl)ccc1Cl` next
> 100 µM

Query `Cc1cc(C)nc(Nc2nc3ccc([N+](=O)[O-])cc3[nH]2)n1` next
> 100 µM

Query C[C@]12CC(c3ccccc3O1)C(C(=O)NC13CC4CC(CC(C4)C1)C3)C(=O)N2 (some centres not stated) next
> 100 µM

Query `O=C1c2ccccc2-c2ccc(N=[N+]([O-])c3ccc4c(c3)C(=O)c3ccccc3-4)cc21` next
> 100 µM

Query CC(=O)OCC1OC(n2c(=O)n(-c3ccccc3)c(=O)c3ccccc32)C(OC(C)=O)C(OC(C)=O)C1OC(C)=O (configuration not stated) next
> 100 µM

Query `CSc1cc(Cl)c(C)cc1S(=O)(=O)NC(=O)NNc1ccc(F)c(Cl)c1` next
> 100 µM

Query CC1(O)/C(=N/O)CC2CC1C2(C)C (configuration not stated) next
> 100 µM
